# assay.text: Example 4: dose response of FKBP constructs 160-255, Ec50, Ec90 and fold change (raw and normalized to mCherry)
# Format: cell-based
# recorded.conditions: FKBP constructs 160-255; not normalized; read-out: EC90
# Protocol: Additional experiments were performed for constructs FKBP-160-292.
property.measured: EC90 (nM)
State just the number; it will be interpreted in nM.

Would you mind telling me what EC90 value was observed for FKBP-244: FKBP13 DRD-AcGFP construct of Table 10 (protein, Description of sequence: Construct Name: FKBP-244; Mutation(s): Q72R Q84E A117W V85R DRD P118S M54A) HCPIKSRKGDVLHAHYTGKLEDGTEFDSSLPRNQPFVFSLGTGERIKGWDQGLLGMCEGEKRKLVIPSELGYGERGWSPKIPGGATLVFEVELLKIER ? 307

Similarly, FKBP-230: FKBP13 DRD-AcGFP construct of Table 10 (protein, Description of sequence: Construct Name: FKBP-230; Mutation(s): Q72R Q84E A117W DRD G63M) HCPIKSRKGDVLHMHYTGKLEDMTEFDSSLPRNQPFVFSLGTGEVIKGWDQGLLGMCEGEKRKLVIPSELGYGERGWPPKIPGGATLVFEVELLKIER ? 997

Similarly, FKBP-209: FKBP13 DRD-AcGFP construct of Table 10 (protein, Description of sequence: Construct Name: FKBP-209; Mutation(s): Q72R Q84E A117W V85R DRD M54A K101W) HCPIKSRKGDVLHAHYTGKLEDGTEFDSSLPRNQPFVFSLGTGERIKGWDQGLLGMCEGEWRKLVIPSELGYGERGWPPKIPGGATLVFEVELLKIER ? 682

Similarly, FKBP-178 (protein, Description of sequence: Construct Name: FKBP-178; Mutation(s): Q72R Q84E A117W DRD M54AF78S) HCPIKSRKGDVLHAHYTGKLEDGTEFDSSLPRNQPFVSSLGTGEVIKGWDQGLLGMCEGEKRKLVIPSELGYGERGWPPKIPGGATLVFEVELLKIER ? 22300

Similarly, FKBP-182 (protein, Description of sequence: Construct Name: FKBP-182; Mutation(s): Q72R Q84E A117W V85R DRD M54A M96W) HCPIKSRKGDVLHAHYTGKLEDGTEFDSSLPRNQPFVFSLGTGERIKGWDQGLLGWCEGEKRKLVIPSELGYGERGWPPKIPGGATLVFEVELLKIER ? 818
